# MEASURED ON: RNA-binding protein pos-1 (Caenorhabditis elegans, UniProt G5EF15)
# Sequence (G5EF15 whole entry): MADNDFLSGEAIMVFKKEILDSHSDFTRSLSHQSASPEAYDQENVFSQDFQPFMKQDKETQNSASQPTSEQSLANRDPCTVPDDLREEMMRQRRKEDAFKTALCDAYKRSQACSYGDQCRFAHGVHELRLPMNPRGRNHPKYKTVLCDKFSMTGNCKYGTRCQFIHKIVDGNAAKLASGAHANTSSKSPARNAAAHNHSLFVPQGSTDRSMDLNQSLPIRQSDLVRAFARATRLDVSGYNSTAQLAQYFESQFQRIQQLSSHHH
# PROTOCOL NOTES: disruptors of C. elegans POS-1 RNA interaction – biochemical, fluorescence polarization, dose response (AID 1964);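 note: purified POS-1 fused to maltose binding protein made in E. coli; potency of compounds blocking POS-1 binding to fluorescent RNA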
Activity calls are given as the source filed them.
# Lookup of reported EC50 keyed by entry

MOLECULE	MEASURED ON	EC50
CCc1cc(=O)oc2cc(C)cc(OC(C)C(=O)O)c12 (stereo unspecified)	RNA-binding protein pos-1 (Caenorhabditis elegans, UniProt G5EF15)	> 300 µM (not active)
CCN(CC)c1ccc(/C=C(/C#N)c2nc3ccccc3[nH]2)c(OC(C)C)c1	RNA-binding protein pos-1 (Caenorhabditis elegans, UniProt G5EF15)	3.96 µM (active)
C=CCN1C(=O)NC(=O)/C(=C/C=C/c2ccccc2)C1=O	RNA-binding protein pos-1 (Caenorhabditis elegans, UniProt G5EF15)	> 300 µM (not active)
COc1ccc(Nc2nc3ccccc3nc2NS(=O)(=O)c2cccs2)cc1	RNA-binding protein pos-1 (Caenorhabditis elegans, UniProt G5EF15)	> 300 µM (inconclusive)
Nc1ccc(S(=O)(=O)NNC(=O)C(=O)NNc2ccccn2)cc1	RNA-binding protein pos-1 (Caenorhabditis elegans, UniProt G5EF15)	137 µM (active)
COc1cc2c(cc1/C=C1/NC(=O)N(c3ccccc3)C1=O)OCO2	RNA-binding protein pos-1 (Caenorhabditis elegans, UniProt G5EF15)	> 300 µM (not active)

====

# Lookup of reported AC50 keyed by entry
# MEASURED ON: Paired box protein Pax-8 (Homo sapiens, UniProt Q06710)
# Sequence (Q06710 whole entry): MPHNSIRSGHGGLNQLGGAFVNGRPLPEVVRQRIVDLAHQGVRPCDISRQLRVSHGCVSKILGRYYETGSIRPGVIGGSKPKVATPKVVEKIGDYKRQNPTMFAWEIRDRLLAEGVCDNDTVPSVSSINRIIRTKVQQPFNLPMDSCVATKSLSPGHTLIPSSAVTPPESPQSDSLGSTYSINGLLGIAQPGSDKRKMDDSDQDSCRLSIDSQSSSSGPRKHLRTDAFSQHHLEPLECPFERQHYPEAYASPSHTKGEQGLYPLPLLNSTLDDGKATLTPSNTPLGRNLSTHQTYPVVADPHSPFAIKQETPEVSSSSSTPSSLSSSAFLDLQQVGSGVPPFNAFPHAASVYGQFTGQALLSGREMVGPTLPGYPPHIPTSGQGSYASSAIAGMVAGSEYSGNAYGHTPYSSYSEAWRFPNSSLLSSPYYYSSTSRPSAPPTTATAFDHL
# PROTOCOL NOTES: PAX8 transcriptional activity inhibition in RMG-I – RMG-I cells, luciferase, cherry-pick, dose response (AID 687027);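 note: luciferase reporter driven by Pax8 target thyroperoxidase promoter measured by SteadyGlo luminescence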
# Format: functional, cell-based
Activity calls are given as the source filed them.
METRIC: AC50

COMPOUND	RECORDED VALUE
COc1ccc(/C=c2/sc3n(c2=O)C(c2ccccc2OC)C2=C(N=3)c3ccccc3CC2)cc1O (configuration not stated)	2.28 µM (active)
C[C@H](CO)N1C[C@H](C)[C@H](CN(C)S(=O)(=O)c2ccc(Cl)cc2)OCCCC[C@H](C)Oc2ccc(NC(=O)Nc3ccc(C(F)(F)F)cc3)cc2C1=O	4.52 µM (active)
C[C@@H]1CN([C@H](C)CO)C(=O)Cc2cc(NS(=O)(=O)c3ccccc3)ccc2O[C@@H]1CN(C)S(=O)(=O)c1ccc(Cl)cc1	35.5 µM (active)
O=C(Nc1cccc(F)c1)N[C@@H]1CC[C@@H](CCNS(=O)(=O)c2cccc(Cl)c2)O[C@@H]1CO	42.7 µM (active)
CCCC1=Nc2cc(C(=O)NCCCOCC)ccc2Sc2ccccc21	1.74 µM (active)
C[C@@H]1CN([C@@H](C)CO)C(=O)c2cc(NC(=O)Nc3ccc(F)cc3)ccc2O[C@@H](C)CCCCO[C@H]1CN(C)Cc1ccc(C(F)(F)F)cc1	6.74 µM (active)
C[C@H](CO)N1C[C@H](C)[C@@H](CN(C)Cc2ccc(Cl)c(Cl)c2)Oc2ccc(NC(=O)Nc3ccc(F)cc3)cc2CC1=O	13.2 µM (active)

====

A short record of AC50 observed with Cytochrome P450 3A4 (Homo sapiens) follows.
Sequence (P08684 whole entry): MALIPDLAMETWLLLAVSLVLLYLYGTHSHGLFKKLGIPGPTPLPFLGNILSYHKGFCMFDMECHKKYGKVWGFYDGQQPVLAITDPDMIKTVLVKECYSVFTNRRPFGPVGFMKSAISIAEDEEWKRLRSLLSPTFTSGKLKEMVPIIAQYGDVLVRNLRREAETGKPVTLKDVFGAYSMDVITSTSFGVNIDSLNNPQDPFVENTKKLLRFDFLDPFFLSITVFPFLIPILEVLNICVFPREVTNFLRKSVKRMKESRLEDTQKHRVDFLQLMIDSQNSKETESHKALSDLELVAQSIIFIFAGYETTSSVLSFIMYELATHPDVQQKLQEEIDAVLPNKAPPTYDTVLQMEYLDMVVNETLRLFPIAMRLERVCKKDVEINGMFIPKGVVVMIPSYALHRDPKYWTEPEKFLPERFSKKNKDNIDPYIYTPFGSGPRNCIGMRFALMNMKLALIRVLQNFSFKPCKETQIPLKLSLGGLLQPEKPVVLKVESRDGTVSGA

COMPOUND	MEASURED ON	AC50
CCOC(=O)/C(C#N)=C\c1ccc(OCC(=O)Nc2ccc(C)cc2C)c(OC)c1	Cytochrome P450 3A4 (Homo sapiens)	10 µM (inconclusive)
CCCn1nc(Oc2nc(NCC)nc(NC(C)C)n2)ccc1=O	Cytochrome P450 3A4 (Homo sapiens)	0.00562 µM (inconclusive)
CC(=O)N1CCC2(CCCN(C(=O)Nc3cccc(F)c3)C2)CC1	Cytochrome P450 3A4 (Homo sapiens)	31.6 µM (inconclusive)
COc1cc(/C=C/C(=O)N2CCN(CC(O)COc3ccccc3)CC2)cc(OC)c1OC.Cl (stereo not given)	Cytochrome P450 3A4 (Homo sapiens)	10 µM (inconclusive)
Cc1noc(C)c1-c1cc(NCc2cccs2)ncn1	Cytochrome P450 3A4 (Homo sapiens)	31.6 µM (inconclusive)
O=C(NCCCN1CCOCC1)c1cc2c(s1)CSC2	Cytochrome P450 3A4 (Homo sapiens)	15.8 µM (inconclusive)
CCCCn1c(=N)n(CC(=O)c2ccco2)c2ccccc21	Cytochrome P450 3A4 (Homo sapiens)	31.6 µM (inconclusive)
CC(=O)/C(=C\c1ccccc1F)C(=O)c1ccccc1	Cytochrome P450 3A4 (Homo sapiens)	3.16 µM (inconclusive)
O=C(Nc1cccc(F)c1)N1CC2(CCN(C(=O)c3cc(C(F)(F)F)cc(C(F)(F)F)c3)CC2)C1	Cytochrome P450 3A4 (Homo sapiens)	39.8 µM (inconclusive)
CSC1=N/C(=C\c2ccc(C)cc2)C(=O)S1	Cytochrome P450 3A4 (Homo sapiens)	39.8 µM (inconclusive)
O=C1[C@@H]2C=CC=CC2=NC(=S)N1CCN1CCC(=C(c2ccc(F)cc2)c2ccc(F)cc2)CC1	Cytochrome P450 3A4 (Homo sapiens)	3.16 µM (inconclusive)
O=C(Nc1ccccc1[N+](=O)[O-])C1C(c2ccccc2)=C1c1ccccc1	Cytochrome P450 3A4 (Homo sapiens)	20 µM (inconclusive)
N[N-][C+]1c2ccccc2N[C@H]1OC(=O)Nc1cccc(Cl)c1	Cytochrome P450 3A4 (Homo sapiens)	5.01 µM (inconclusive)
O=C(NCCC[N+]1=CC=N[C@H]1c1ccccc1)N1CCCc2nc(-c3ccc(Br)cc3)ccc21	Cytochrome P450 3A4 (Homo sapiens)	3.16 µM (inconclusive)
C=CCc1cc(C=O)cc(OC)c1OCc1ccc(Cl)cc1	Cytochrome P450 3A4 (Homo sapiens)	17.8 µM (inconclusive)

====

# MEASURED ON: UniProt P31941
# Sequence (P31941 whole entry): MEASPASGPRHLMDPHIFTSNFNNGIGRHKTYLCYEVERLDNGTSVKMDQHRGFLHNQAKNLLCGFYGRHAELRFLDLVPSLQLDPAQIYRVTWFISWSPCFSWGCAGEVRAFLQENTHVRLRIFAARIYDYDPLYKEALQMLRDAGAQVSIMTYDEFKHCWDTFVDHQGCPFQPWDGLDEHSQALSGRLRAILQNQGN
# PROTOCOL NOTES: Dose Response confirmation of small molecule APOBEC3A DNA Deaminase Inhibitors via a fluorescence-based single-stranded DNA deaminase assay. [Related pubchem assays (depositor defined):AID493011, AID493024]
# Format: functional
The source made the active and inactive calls.
METRIC: IC50

COMPOUND	RECORDED VALUE
CCN1C(NCCOC)=N[C@@H](c2cccc(C(F)(F)F)c2)C(C(=O)OC)=C1C	2.09 µM (active)
CCN(CC)P(c1n(C)cc[n+]1C)N(CC)CC	2.47 µM (active)
CC1CCCC(C2(O)C(=O)Nc3ccccc32)C1=O (centres undefined)	5.46 µM (active)
O=C1NC(=O)N(CCc2ccc(F)cc2)C(=O)/C1=C/c1ccco1	15 µM (active)

====

# MEASURED ON: Heat shock factor protein 1 (Mus musculus)
# Sequence (P38532 whole entry): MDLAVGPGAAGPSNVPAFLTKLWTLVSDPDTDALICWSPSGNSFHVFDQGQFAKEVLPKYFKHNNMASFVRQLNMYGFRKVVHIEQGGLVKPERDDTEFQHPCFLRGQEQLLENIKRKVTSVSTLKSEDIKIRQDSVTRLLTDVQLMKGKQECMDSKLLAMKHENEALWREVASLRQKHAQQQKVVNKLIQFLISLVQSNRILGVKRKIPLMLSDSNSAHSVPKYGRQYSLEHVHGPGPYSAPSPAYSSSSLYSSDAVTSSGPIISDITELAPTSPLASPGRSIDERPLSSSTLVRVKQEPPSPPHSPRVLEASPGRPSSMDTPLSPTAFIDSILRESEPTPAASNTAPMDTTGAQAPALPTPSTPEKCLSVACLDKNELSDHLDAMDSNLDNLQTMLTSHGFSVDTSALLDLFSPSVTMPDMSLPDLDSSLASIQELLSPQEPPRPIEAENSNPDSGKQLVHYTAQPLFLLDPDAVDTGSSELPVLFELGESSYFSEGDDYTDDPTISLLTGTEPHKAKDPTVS
# PROTOCOL NOTES: enhancement of HSF1-driven luciferase signal – cell-based, NIH3T3, luminescence, dose retest, confirmation (AID 435004);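 note: stress induced by proteasome inhibitor MG132 added 30 min after compound; luciferase reporter driven by HSF1 response element in NIH3T3 cells; actives raise luminescence as potentiators of the MG132 stress response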
# Assay type: functional
Active and inactive are the calls of the source.
Outcome codes: active, inactive

MOLECULE	ASSIGNED CLASS
O=C(CN(C(=O)c1csnn1)c1ccc(F)c(Cl)c1)NCc1ccc(F)cc1	inactive
COc1ccc(C2CC(=O)c3cnc(N4CCc5ccccc54)nc3C2)cc1OC (stereo unspecified)	inactive
Cc1ccc(C)c(CN2C(=O)COc3ccccc32)c1	inactive
COc1ccc(-c2nc(Cn3c(SCc4ccc(F)cc4)nc4ccncc43)c(C)o2)cc1OC	active
CC(C)=NN1C(=O)c2ccccc2NC1(C)C	inactive
C[C@@H]1C(NC(=O)c2ccccc2)CC2CC1C2(C)C (stereo partly specified)	inactive
Cc1cc2c(cc1C)-c1nnnn1C(C)(C)C2	inactive
O=C1CSC(=S)N1/N=C/c1cccc(C(F)(F)F)c1	inactive
CC(=O)n1c2c(c3ccccc31)OC(N)=C(C#N)C2c1cccc(Cl)c1Cl (stereo unspecified)	active
S=C(NCCSCc1ccc(Cl)c(Cl)c1)Nc1ccccc1	inactive
CC(=O)COc1cccc2ccc(/C=C/c3ccc(Br)s3)nc12	active

====

# MEASURED ON: Zinc finger protein mex-5 (Caenorhabditis elegans)
# Sequence (Q9XUB2 whole entry): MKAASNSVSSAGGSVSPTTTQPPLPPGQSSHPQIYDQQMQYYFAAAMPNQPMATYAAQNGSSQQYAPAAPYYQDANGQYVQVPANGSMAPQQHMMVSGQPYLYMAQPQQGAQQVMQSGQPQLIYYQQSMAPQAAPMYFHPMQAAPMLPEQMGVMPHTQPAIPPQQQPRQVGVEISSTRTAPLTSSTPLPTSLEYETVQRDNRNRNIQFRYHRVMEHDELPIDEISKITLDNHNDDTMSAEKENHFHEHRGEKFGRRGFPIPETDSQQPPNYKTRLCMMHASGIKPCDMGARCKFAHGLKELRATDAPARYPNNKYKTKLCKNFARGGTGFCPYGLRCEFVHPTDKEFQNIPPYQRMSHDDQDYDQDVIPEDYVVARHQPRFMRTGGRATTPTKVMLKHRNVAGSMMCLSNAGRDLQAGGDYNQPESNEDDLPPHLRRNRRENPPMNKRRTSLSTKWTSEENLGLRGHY
# PROTOCOL NOTES: potency of MEX-5 RNA-binding blockers – biochemical, C. elegans, fluorescence polarization, dose response (AID 1960)
Activity calls are given as the source filed them.

COMPOUND	EC50
Oc1ccc(-c2csc(Nc3ccccn3)n2)cc1O	17.3 µM (active)
c1ccc(-c2cn3nc4c(nc3n2)CCCC4)cc1	10.6 µM (active)
O=C(CCSc1nc2ccccc2s1)N/N=C/c1c(O)ccc2ccccc12	14.6 µM (active)
CCc1cc(=O)oc2cc(C)cc(OC(C)C(=O)O)c12 (configuration not stated)	> 300 µM (not active)
CCN(CC)c1ccc(C=C2C(=O)OC(C)(C(C)(C)C)OC2=O)cc1 (configuration not stated)	> 300 µM (inconclusive)
C=CCN1C(=O)NC(=O)/C(=C/C=C/c2ccccc2)C1=O	> 300 µM (not active)
COc1ccc(Nc2nc3ccccc3nc2NS(=O)(=O)c2cccs2)cc1	34.8 µM (active)
CCCCC1=CC2=C(c3ccco3)C(=O)C(C)(OC(=O)c3ccc(OC)cc3)C(=O)C2=CN1C1CC1 (configuration not stated)	> 300 µM (not active)
CCN(CC)c1ccc(/C=C(/C#N)c2nc3ccccc3[nH]2)c(OC(C)C)c1	8.13 µM (active)
O=C(N1CCOCC1)N1CCC(n2nnc3cc(F)ccc32)CC1	46.7 µM (inconclusive)
Cc1ccc(NCC(=O)N/N=C/c2ccc(C(=O)O)cc2)cc1	> 300 µM (not active)
COc1cc2c(cc1/C=C1/NC(=O)N(c3ccccc3)C1=O)OCO2	> 300 µM (not active)
